# Tested on: CAKI-1 renal
# Assay comment: NCI tumour cell line growth inhibition, 48 h
Recorded measurements of log10 TGI, one per entry
Answers are given as log10 of TGI in µM.

In [3]: df
Out[3]:
                  compound_structure_string  measured_metric  obs_value
0  CN1C(=O)C(C)(C)Oc2c(-c3cn(C)c(=O)c4[nH]ccc34)cc(S(C)(=O)=O)cc21        log10 TGI       1.21
1                   Cc1ccc(SSCCCCS(=O)O)cc1        log10 TGI       1.61
2  O=C(N/N=C/c1cccc(O)c1)c1ccc(C(F)(F)F)nc1Nc1cccc(C(F)(F)F)c1        log10 TGI       0.48
3  COc1ccc2c(c1)C(=O)c1c-2n(CCCNCCO)c(=O)c2cc([N+](=O)[O-])ccc12        log10 TGI      -1.22

Then there is this compound:
Tested on CAKI-1 renal: O=C(Nc1ccc(N2CCNCC2)cn1)c1[nH]ncc1Nc1ncnc2sc3c(c12)CCC3 . Observed log10 TGI: 0.51

* * *

Recorded measurements of GI50, one per entry
# Test system: EKVX NSCLC
# Assay comment: NCI tumour cell line growth inhibition, 48 h

Below, each entry is followed by its recorded GI50 result.
In [3]: df
Out[3]:
                                   compound  measured_metric   obs_value
0  COc1ccc(OC)c(/C=C/C(=O)c2ccc3cc(OC)ccc3c2)c1             GI50   > 12.3 µM
1  Nc1nc(Cl)c2ncn(Cc3ccc(-c4ccc(CCl)cc4)cc3)c2n1             GI50     10.6 µM
2  Cn1c(=O)c2[nH]cnc2n(C)c1=O.[CH2-]C(Cc1cccc2cc(C(=O)O)c(=O)oc12)OC.[Hg+2].[OH-] (stereo not given)             GI50     20.7 µM
3  COC(=O)CCc1c(/C=C2\N=C(c3ccc[nH]3)C=C2OC)[nH]c(C)c1C(=O)OCc1ccccc1             GI50    0.733 µM
4  O=C1CC2OCC=C3CN4CCC56c7ccccc7N1C5C2C3CC46 (stereo not given) (tested in a mixture with another compound)             GI50  > 50 µg/mL
5  NS(=O)(=O)c1ccc(N=Nc2c(=O)[nH]c3ccc4[nH]cccc4c23)cc1             GI50      2.1 µM
6        O=C1C=C(OCC=C(Cl)Cl)C(=O)c2ccccc21             GI50     3.33 µM
7  CC1(C)N=C(N)N=C(N)N1c1ccc(CCC(=O)Nc2cccc(S(=O)(=O)F)c2)cc1             GI50    > 100 µM
8  Nc1cc(N)c2nc(-c3ccccc3)c(Oc3ccc(Cl)c(Cl)c3)nc2c1             GI50     2.16 µM
9  O=C(CN1CCN(c2ccccn2)CC1)Nc1ccc(Cl)cc1C(=O)c1ccccc1Cl             GI50     45.4 µM

Query COC(=O)[C@]1(C)CC[C@]2(C)CC[C@]3(C)C(=CC(=O)[C@@H]4[C@@]5(C)CCC(=O)NC(C)(C)[C@@H]5CC[C@]43C)[C@@H]2C1 yields GI50 of 25.5 µM

Query CCC(=O)Oc1ccc(/C=N/NC(N)=S)nc1 yields GI50 of 43.7 µM

Query COc1ccc(-c2cc3c(N)ncnc3o2)cc1 yields GI50 of 3.59 µM

Query COc1ccc(/C=C/C(=O)/C=C(/C=C/c2ccc(OC)c(OC)c2OC)OB(F)F)c(OC)c1OC yields GI50 of 2.96 µM

Query O=C(N/N=C/c1cccc(O)c1)c1ccc(C(F)(F)F)nc1Nc1cccc(C(F)(F)F)c1 yields GI50 of 1.01 µM

Query C[C@H](c1ccc(Cl)cc1[N+](=O)[O-])N1C(=O)c2cc(I)ccc2NC(=O)[C@H]1c1ccc(Cl)cc1 yields GI50 of 4.98 µM

Query CN1CCN(Cc2ccc(NC(=O)c3[nH]ncc3Nc3cc(OC4CCCC4)ncn3)cc2)CC1 yields GI50 of 3.86 µM

Query CC(CNc1nc(Nc2ccc(Cl)c(Cl)c2)nc(C(Cl)(Cl)Cl)n1)N(C)C (stereo not given) yields GI50 of 1.99 µM

Query CCCCCCCCCCCCCCCC(N)c1ccccc1 (stereo not given) yields GI50 of 1.59 µM

Query CC(=O)Nc1nc(C)c(-c2cc3c(c(S(C)(=O)=O)c2)C(=O)N([C@@H](C)C2CC2)C3)s1 yields GI50 of 18.3 µM
